Numbers sourced from paper PMC5607274.

Target: human recombinant Yes [a.a. 2–543 (end)] (Homo sapiens)
Construct: human recombinant Yes [a.a; 2–543 (end)]; purchased BPS Bioscience 40488
Sequence (P07947 2-543): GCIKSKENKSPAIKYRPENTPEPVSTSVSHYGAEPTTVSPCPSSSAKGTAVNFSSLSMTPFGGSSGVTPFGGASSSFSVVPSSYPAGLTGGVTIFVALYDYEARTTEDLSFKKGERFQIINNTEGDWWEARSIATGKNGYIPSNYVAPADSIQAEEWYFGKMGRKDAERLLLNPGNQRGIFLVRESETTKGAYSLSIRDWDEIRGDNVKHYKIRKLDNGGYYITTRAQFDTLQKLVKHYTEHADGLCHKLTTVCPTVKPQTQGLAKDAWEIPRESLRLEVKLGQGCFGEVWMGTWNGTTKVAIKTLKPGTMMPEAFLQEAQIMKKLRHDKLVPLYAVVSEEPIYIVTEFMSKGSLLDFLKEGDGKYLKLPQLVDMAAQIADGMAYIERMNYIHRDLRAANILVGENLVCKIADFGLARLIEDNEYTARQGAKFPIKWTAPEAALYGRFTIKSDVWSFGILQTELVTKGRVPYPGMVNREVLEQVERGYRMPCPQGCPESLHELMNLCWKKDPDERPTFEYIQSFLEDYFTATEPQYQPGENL
Test: ADP-Glo kinase assay, inhibition rates of Yes phosphorylation activity (first and second screening)
Assay type: biochemical
Details: first screening; mean of n = 4 wells; 10 μmol L−1 compound
readout_label: First screening IR (inhibition rate) (%)

[[record]]
molecule = "CC(Nc1ccc2c(c1)OCCO2)C(=O)Nc1ccc(F)c(F)c1F (centres unmarked)"
unit_info = "%"
result = 4


1 = Cc1nn(Cc2ccccc2)c(Cl)c1C(=O)OCc1nc(N)nc(Nc2ccccc2)n1
2 = O=C(NCc1ccc(-c2nc3ccccc3s2)o1)c1ccco1
Short answer wanted: higher First screening IR (inhibition rate), 1 or 2 ? Your choice should be expressed through its label.
2

P = Cc1cnc(COC(=O)c2cc(-c3ccccn3)ccc2Cl)cn1
Q = CC(Nc1ccc([N+](=O)[O-])cc1[N+](=O)[O-])c1nnc2ccccn12 (centres unmarked)
R = COc1ccc(-c2cc(-c3cc4ccccc4o3)nc3c2cnn3C(C)C)cc1
S = CCOC(=O)c1c(Nc2nc3ccccc3nc2N2CCN(Cc3ccccc3)CC2)sc(C)c1C
rank_up(items): orders items by reported First screening IR (inhibition rate) in ascending numerical order. Output spec: a listing of the labels in the requested order.
Q, P, S, R

* * *

Molecular target: human recombinant Yes [a.a. 2–543 (end)] (Homo sapiens)
Construct: human recombinant Yes [a.a; 2–543 (end)]; purchased BPS Bioscience 40488
Assay: ADP-Glo kinase assay, inhibition rates of Yes phosphorylation activity (first and second screening)
Assay type: biochemical
Conditions: first screening; mean of n = 4 wells; 10 μmol L−1 compound
readout_label: First screening IR (inhibition rate) (%)

[[record]]
compound = "Cc1ccc(-c2csc3ncn(CC(=O)NC(CN4CCOCC4)c4ccccc4)c(=O)c23)cc1 (centres unmarked)"
unit_info = "%"
result = 4

[[record]]
compound = "CCC(C)NC(=O)c1ccc2c(=O)n(CC(C)C)c3nnc(SCC(=O)Nc4ccccc4C)n3c2c1 (centres unmarked)"
unit_info = "%"
result = -8

[[record]]
compound = "CCCCNS(=O)(=O)C1=CCS(=O)(=O)C1"
unit_info = "%"
result = 9

[[record]]
compound = "Cl.N#Cc1ccc(-c2cc(-c3ccccc3F)c3cc(Cl)ccc3n2)cc1"
unit_info = "%"
result = 3

[[record]]
compound = "CC(C)n1ncc2c(C(=O)Nc3ccccc3F)cc(-c3ccco3)nc21"
unit_info = "%"
result = 37

[[record]]
compound = "O=C(OCc1noc(C2CC2)n1)c1c[nH]cc1-c1ccc(Cl)s1"
unit_info = "%"
result = 10

[[record]]
compound = "Cc1cc(/C=C/C(=O)N2CCOCC2)c(C)n1-c1ccnn1C(C)C"
unit_info = "%"
result = 15

[[record]]
compound = "CC(=O)c1c[nH]c(C(=O)NCCc2ccc(-c3csc(C)n3)s2)c1"
unit_info = "%"
result = 3

[[record]]
compound = "Cc1ccc(-c2nn3c(=O)c4c5c(sc4nc3c3ccccc23)CCCC5)cc1"
unit_info = "%"
result = 4

[[record]]
compound = "Oc1cccc(CN(c2ncnc3ccsc23)C2CC2)c1"
unit_info = "%"
result = 1


a = c1ccc(-n2ncc3c(SCCc4ccncc4)ncnc32)cc1
b = CCc1ccc(S(=O)(=O)N(CC)C2CCS(=O)(=O)C2)cc1 (centres unmarked)
c = O=C(Cn1c(CN2CCOCC2)nc2sc3c(c2c1=O)CCCC3)Nc1ccc(OCc2ccccc2)cc1
List items by First screening IR (inhibition rate) in falling order. Output spec: a listing of the labels in the requested order.
c, a, b

* * *

Biological target: human recombinant Yes [a.a. 2–543 (end)] (Homo sapiens)
Construct: human recombinant Yes [a.a; 2–543 (end)]; purchased BPS Bioscience 40488
Assay: ADP-Glo kinase assay, inhibition rates of Yes phosphorylation activity (first and second screening)
Format: biochemical
Conditions: first screening; mean of n = 4 wells; 10 μmol L−1 compound
readout_label: First screening IR (inhibition rate) (%)

Illustrative cases are given below, each with its answer.
[[record]]
compound = "Cc1c(-c2ccc(OC(F)F)cc2)nc2ccccc2c1-c1ccccc1.Cl"
readout_label = "First screening IR (inhibition rate)"
unit_info = "%"
result = 4

[[record]]
compound = "CNS(=O)(=O)c1ccc(NC(=O)c2cn(-c3ccccc3)nc2-c2cccnc2)cc1"
readout_label = "First screening IR (inhibition rate)"
unit_info = "%"
result = 11

[[record]]
compound = "Fc1ccc(-c2n[nH]c(CNc3cncc(Cl)n3)n2)cc1"
readout_label = "First screening IR (inhibition rate)"
unit_info = "%"
result = -11

[[record]]
compound = "Cn1c(=O)[nH]c(=O)c2c1nc(N1CCN(C/C=C/c3ccccc3)CC1)n2Cc1ccc(Cl)cc1"
readout_label = "First screening IR (inhibition rate)"
unit_info = "%"
result = -14

[[record]]
compound = "CCCCOc1ccc(C(=O)NCC(=O)NCC(c2cccs2)N2CCOCC2)cc1 (centres unmarked)"
readout_label = "First screening IR (inhibition rate)"
unit_info = "%"
result = 6


P = CCCOc1ccc(OCC(=O)Nc2ccc3oc(C)nc3c2)cc1
Q = Cc1ccc(-n2c(SCC(=O)c3cc(C)n(CC4CCCO4)c3C)nnc2N2CCOCC2)cc1 (centres unmarked)
R = CCN(C1CCS(=O)(=O)C1)S(=O)(=O)c1cc(Br)ccc1C (centres unmarked)
rank_up(items): orders items by reported First screening IR (inhibition rate) in ascending numerical order. Output spec: a listing of the labels in the requested order.
R, P, Q

A = O=C(Nc1cccc(C(F)(F)F)c1)c1cccc(NC(=O)c2cnccn2)c1
B = O=C(Nc1ccc2nc(-c3ccco3)[nH]c2c1)c1ccc(Cl)nc1
C = CN(C)S(=O)(=O)c1cccc(CS(=O)(=O)c2ccccn2)c1
List items by First screening IR (inhibition rate) in falling order. Output spec: a listing of the labels in the requested order.
B, A, C

* * *

Target: human recombinant Yes [a.a. 2–543 (end)] (Homo sapiens)
Construct: human recombinant Yes [a.a; 2–543 (end)]; purchased BPS Bioscience 40488
Assay: ADP-Glo kinase assay, inhibition rates of Yes phosphorylation activity (first and second screening)
Type: biochemical
Conditions: first screening; mean of n = 4 wells; 10 μmol L−1 compound
Protocol: All inhibitory assays of the phosphorylation activity of Yes were performed in accordance with the Promega Technical Manual for the ADP-Glo™ Kinase Assay (Fitchburg, WI, USA. Catalog number: V9102). The human recombinant Yes [a.a. […] The screening was conducted in three steps consisting of the first screening, the second screening, and the IC50 determination, as can be illustrated in Fig. 1b. First, we determined the inhibition rates of the 1,991 compounds. […]
readout_label: First screening IR (inhibition rate) (%)

[[record]]
molecule = "CC(C)c1cc(NS(=O)(=O)c2cc(F)c(Br)cc2F)n[nH]1 [Compound Z1551172092]"
experimental_target = "human recombinant Yes [a.a. 2–543 (end)] (Homo sapiens)"
readout_label = "First screening IR (inhibition rate)"
unit_info = "%"
result = 5

[[record]]
molecule = "N#Cc1ccccc1CSCCNC(=O)N1CCN(c2ncc(C(F)(F)F)cc2Cl)CC1 [Compound Z352490104]"
experimental_target = "human recombinant Yes [a.a. 2–543 (end)] (Homo sapiens)"
readout_label = "First screening IR (inhibition rate)"
unit_info = "%"
result = -2

[[record]]
molecule = "Cc1cccc(C)c1NC(=O)CN1CCN(C(C(=O)N2CCCCC2)c2ccccc2)CC1 (stereo not shown) [Compound Z106611352]"
experimental_target = "human recombinant Yes [a.a. 2–543 (end)] (Homo sapiens)"
readout_label = "First screening IR (inhibition rate)"
unit_info = "%"
result = -11


A = Cc1cc(NC(=O)C(C)SCC(=O)Nc2ccc(SC3CCCC3)cc2)no1 (stereo not shown) [Compound Z357095098]
B = Cc1cc(F)ccc1S(=O)(=O)Nc1ccc(C(=O)Nc2cccc(CO)c2)cc1 [Compound Z32804094]
Please indicate which has the smaller reported First screening IR (inhibition rate): A , or B . Your choice should be expressed through its label.
A
(A: -13%, B: 11%)

* * *

Target: human recombinant Yes [a.a. 2–543 (end)] (Homo sapiens)
Construct: human recombinant Yes [a.a; 2–543 (end)]; purchased BPS Bioscience 40488
Assay: ADP-Glo kinase assay, inhibition rates of Yes phosphorylation activity (first and second screening)
Assay type: biochemical
Conditions: first screening; mean of n = 4 wells; 10 μmol L−1 compound
readout_label: First screening IR (inhibition rate) (%)

Illustrative cases are given below, each with its answer.
[[record]]
molecule = "O=C(NCC1(N2CCCCC2)CCCCC1)c1ccc(S(=O)(=O)NC2CC2)cc1"
result = -3

[[record]]
molecule = "O=C(OCc1cccc(C(F)(F)F)c1)c1n[nH]c(=O)c2ccccc12"
result = -11


A = CC(C)COCCCNS(=O)(=O)CCCS(=O)(=O)N(C)C
B = O=c1c([N+](=O)[O-])c(NCCCn2ccnc2)c2ccccc2n1-c1ccccc1
C = CCC(C)(C)C1C/C(=C/c2ccc(Sc3nncn3C)c([N+](=O)[O-])c2)c2nc3ccccc3c(C(=O)O)c2C1 (stereo not shown)
D = CN(C(=O)c1cccc(NC(=O)c2ccc(Br)o2)c1)c1ccc(C#N)cc1
E = CN(CC(=O)Nc1ccccc1Cl)C(=O)COC(=O)c1c2c(nc3ccccc13)CCC(C(C)(C)C)C2 (stereo not shown)
List items by First screening IR (inhibition rate) in falling order. Output spec: a listing of the labels in the requested order.
C, E, D, A, B
